// data source = the supplement of paper PMC10724198

sequences and their reported protein stability index
Test system: Saccharomyces cerevisiae
EXPERIMENT: protein stability index of tFT-peptide fusion (C-terminal peptide) (PSI (0-1 scale)); higher = more stable (slower turnover)
SETTINGS: genetic background: wild type; temperature: 30 C
MEASURE: protein stability index

INSERT INTO measurements (construct_sequence, measure, reported) VALUES
  ('PPPLHPRYDPPA', 'protein stability index', 0.685),
  ('WKKYTKTKKKKN', 'protein stability index', 0.689),
  ('HLGPPPGRVFAV', 'protein stability index', 0.619),
  ('GWMGGFLVMSID', 'protein stability index', 0.686),
  ('CLRRTSLEDRRR', 'protein stability index', 0.704),
  ('LVRGGLTNLFLF', 'protein stability index', 0.316),
  ('GGTGRGGEMGGR', 'protein stability index', 0.743);

----------
Test system: Saccharomyces cerevisiae;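 note: PSI is a weighted mean of sequencing reads over stability bins, variants kept only with over 10 reads, mCherry proximal and sfGFP distal, peptide attached via GGGS linker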
EXPERIMENT: protein stability index of tFT-peptide fusion (C-terminal peptide) (PSI (0-1 scale)); higher = more stable (slower turnover)
SETTINGS: genetic background: wild type; temperature: 30 C
sequences and their reported protein stability index
MEASURE: protein stability index

INSERT INTO results (construct_sequence, reported) VALUES
  ('IKKRTSNRENKD', 0.7),
  ('LSFFGPPFPISF', 0.74),
  ('PPSPDPPPPDLS', 0.649),
  ('TFSPRLRPPPPP', 0.708),
  ('LVFPRCAFGFCF', 0.679),
  ('GGGGGGGLGGAF', 0.717),
  ('KSVQEPTPRKYR', 0.674),
  ('SPRVRVYLTDTG', 0.731),
  ('PPPPRPPRPYSV', 0.767),
  ('GSPALGSCSWSR', 0.627),
  ('LIVFSFLSCPVP', 0.523),
  ('GGWGCGGWGFVG', 0.586),
  ('GGGSLWWDVGYG', 0.665),
  ('GAVHLNSLPVTK', 0.698),
  ('SFRCLGFTSSRV', 0.681),
  ('FAFQAHWGCRDF', 0.703),
  ('RKTKKKKENKRR', 0.713),
  ('STSAPPRVPTPR', 0.704),
  ('GIPCRCVCLNQW', 0.696),
  ('LSVMACGMGESI', 0.696),
  ('LLRYKWSRHLVG', 0.47),
  ('RGPPIPTLRYQH', 0.746),
  ('LSGLVPSLGCRR', 0.786),
  ('FLPPYSLPTPPF', 0.699),
  ('TSSWGGLVASLR', 0.74),
  ('YSGSPPFPLSRL', 0.801),
  ('FGFSFLHLFIFF', 0.399),
  ('SPPPPPPRPLTP', 0.672),
  ('RCTLFGMDQSSA', 0.642),
  ('KKKKKKKTKKQK', 0.696),
  ('GDIQRSNNFTIG', 0.779),
  ('PARRPPLPRLFL', 0.665),
  ('TLPPSPTPPLYP', 0.773),
  ('APRIILTCRSLT', 0.5),
  ('AERCCLHPPIPA', 0.541),
  ('AGVRFLVIPRPP', 0.718),
  ('KGQKVAYSRHRA', 0.718),
  ('RGWKGGLSLGEI', 0.586),
  ('GMGRGRGNANEG', 0.622),
  ('FFLSFICVMLCG', 0.237),
  ('KSKIKKKKQTKR', 0.652),
  ('SGRGFSFVLCTV', 0.412),
  ('SCVFPSSCFVLI', 0.607),
  ('LLLDIFYWTVQS', 0.615),
  ('KSGLMFCIGDWC', 0.7),
  ('SILQINRDNVMR', 0.742),
  ('FFPPAHFAPQPA', 0.719),
  ('SWGRYSYIEVMR', 0.702),
  ('MSGKIMVLQKEE', 0.643),
  ('RTRAPSKHAPER', 0.841),
  ('CGGSWMRGLRDL', 0.72),
  ('LRIYIKTGAKGV', 0.714),
  ('PDRIQPRSVLLP', 0.729),
  ('PPPPRRPPPAPF', 0.694),
  ('CFGRSPWLTINV', 0.617),
  ('CLHTSVYFHLQR', 0.669),
  ('LNQHEQKRKNEG', 0.724),
  ('FVFCGVVFLFLL', 0.351),
  ('WGGTGALGTVRW', 0.759),
  ('PTLFSLLLRAFL', 0.623),
  ('DFVGVVGFLVAG', 0.65),
  ('GGGGAGGRRGTQ', 0.654),
  ('PPYSQPSSTPPH', 0.706),
  ('PLWRPLALSHVS', 0.67),
  ('FWVGGGVFGVRV', 0.747),
  ('WLFRCFLFVVGG', 0.422),
  ('PARASLRCLCRN', 0.662),
  ('PSLQPPLHYPPP', 0.645),
  ('FFSPFSPALYTS', 0.756),
  ('IPSPYPPPAPLH', 0.666),
  ('KTMCNNLTKLQR', 0.622),
  ('KHRIEYQEKNTF', 0.67),
  ('PPPPPPPPAPFP', 0.687),
  ('CMPVYYTVVIRL', 0.296),
  ('REKEKGYLNKKK', 0.743),
  ('RKIKKRITREKM', 0.617),
  ('GGGRGVGCMGCR', 0.688),
  ('PRLAPLTLLPPS', 0.705),
  ('IGGRRGVTGIFV', 0.699),
  ('PPPFSPLPPGPP', 0.699);
